The measured values listed here are drawn from patent EP4768505A1.

Target: T1, Mouse CD79A+CD79B antigen (mouse) (UniProt P11911)
T1 sequence (looked up) 1: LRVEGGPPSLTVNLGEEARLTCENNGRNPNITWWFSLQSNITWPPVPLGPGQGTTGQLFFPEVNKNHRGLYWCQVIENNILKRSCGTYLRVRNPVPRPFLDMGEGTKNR
T1 sequence (looked up) 2: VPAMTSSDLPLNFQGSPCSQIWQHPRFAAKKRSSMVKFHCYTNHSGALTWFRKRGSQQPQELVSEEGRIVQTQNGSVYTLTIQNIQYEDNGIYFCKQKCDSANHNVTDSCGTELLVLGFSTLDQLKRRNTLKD
Test: ELISA on coated antigen, anti-myc detection; 20ug antibody added
Returns one of met or not met; met when OD450 nm is >= 0.1 OD450.

Worked set:
binder="anti-CD79B single-domain antibody JYB14 (VHH, Alpaca VHH from a phage library; ELISA detected with an anti-myc antibody; a myc tag is not described; not shown: His-tag protein at the C-terminal end) VHH: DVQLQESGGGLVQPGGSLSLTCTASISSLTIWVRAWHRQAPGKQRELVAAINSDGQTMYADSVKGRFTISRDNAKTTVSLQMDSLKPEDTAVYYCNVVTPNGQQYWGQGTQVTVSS" answer_label=met
binder="anti-CD79B single-domain antibody JYB8 (VHH, not shown: small tags and cut ends) VHH: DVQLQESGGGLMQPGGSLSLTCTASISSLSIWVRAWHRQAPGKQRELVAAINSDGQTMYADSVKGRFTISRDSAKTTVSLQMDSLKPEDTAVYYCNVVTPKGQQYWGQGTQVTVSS" answer_label=met
binder="anti-CD79B single-domain antibody JYB4 (VHH, Alpaca VHH from a phage library; not shown: His-tag protein at the C-terminal end) VHH: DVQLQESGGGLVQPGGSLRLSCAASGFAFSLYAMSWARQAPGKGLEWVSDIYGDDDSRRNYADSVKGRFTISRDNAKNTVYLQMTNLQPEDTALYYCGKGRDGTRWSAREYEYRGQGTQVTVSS" answer_label="not met"

Please tell me: is the binder anti-CD79B single-domain antibody JYB10 (VHH, Alpaca VHH from a phage library; ELISA detected with an anti-myc antibody; a myc tag is not described; not shown: His-tag protein at the C-terminal end) VHH: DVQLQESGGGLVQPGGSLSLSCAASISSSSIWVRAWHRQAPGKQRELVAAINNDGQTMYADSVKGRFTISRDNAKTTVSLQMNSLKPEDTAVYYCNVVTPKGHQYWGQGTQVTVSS at or over 0.1 OD450 in terms of OD450 nm?
met
